Test system: MCAO/R rats
Assay: Therapeutic administration (i.v.) in middle cerebral artery occlusion/reperfusion (MCAO/R) rats
Type: in vivo, rat
Settings: low dose 3 mg/kg i.v., once a day for 3 days; mean ± SD, n = 8
Experimental: Male SD rats weighing 250 to 300 g were taken, and the rats in each group fasted for 12 hours before modeling, while water was not restricted. According to the method of Longa et al.^[1], a rat model of MCAO/R was established by occluding the blood flow of internal carotid artery using the thread embolization method. The rats were anesthetized with 3% chloral hydrate (300 mg/kg, 1 mL/100 g body weight) through intraperitoneal injection and fixed in the supine position on the operating table. […]
Measured quantity: Clotting time (s)
Just the number in s, nothing appended.

Some solved entries appear below for comparison.
Compound | Unit | Clotting time
O=C(O)[C@@H]1C[C@H]1c1ccc(Cn2cnc(Cl)c2)cc1F [Compound 13] | s | 146.94
O=C(O)[C@@H]1C[C@H]1c1ccc(Cn2ccnc2)cc1 [Compound 19] | s | 136.25
O=C(O)[C@@H]1C[C@H]1c1ccc(Cn2cnc(F)c2)c(Cl)c1 [Compound 18] | s | 152.38
O=C(O)[C@@H]1C[C@H]1c1ccc(Cn2cnc(Cl)c2)c(Cl)c1 [Compound 11] | s | 138.38
O=C(O)[C@@H]1C[C@H]1c1ccc(Cn2ccnc2)c(F)c1 [Compound 15] | s | 155.38

Q) // fetch Clotting time; item: O=C(O)[C@@H]1C[C@H]1c1ccc(Cn2cnc(F)c2)cc1F [Compound 17] ; system: MCAO/R rats
A) 141.25

====

Test: Blood-brain barrier (BBB) study in SD rats after single IV and PO administration, brain
Assay type: in vivo
Details: Sprague-Dawley (SD); rat brain; IV 1 mg/kg
The threshold is inclusive: half-life of exactly 2 h counts as fulfilled; values below receive not fulfilled.

# count of solved cases: 3
Compound | Class
O=C(O)[C@@H]1C[C@H]1c1ccc(Cn2ccnc2)cc1 [Compound 19] | not fulfilled
O=C(O)[C@@H]1C[C@H]1c1ccc(Cn2cnc(Cl)c2)c(Cl)c1 [Compound 11] | fulfilled
O=C(O)/C=C/c1ccc(Cn2ccnc2)cc1 [Ozagrel, reference compound] | not fulfilled

Q) Is half-life at least 2 h? Consider O=C(O)[C@@H]1C[C@H]1c1ccc(Cn2cnc(F)c2)c(Cl)c1 [Compound 18]
A) fulfilled

Q) Item O=C(O)[C@@H]1C[C@H]1c1ccc(Cn2ccnc2)c(F)c1 [Compound 15] with half-life of 2 h or above?
A) fulfilled

Q) Check if half-life >= 2 h (inclusive). Item: O=C(O)[C@@H]1C[C@H]1c1ccc(Cn2cnc(F)c2)cc1F [Compound 17]
A) fulfilled

====

Assay: Pharmacokinetics in SD rats after single IV and PO administration, plasma
Format: in vivo
Settings: Sprague-Dawley (SD); rat plasma; IV 1 mg/kg
Description: The experimental method of administration by gavage injection in rats: SD rats weighing 180 to 220 g were fasted for 12 hours prior to the experiment, with free access to water. After administration, food and water were withheld for 4 hours. After this 4-hour period, the rats were allowed free access to water, and food was provided after 8 hours. The drugs were administered at a set dose. […]
Measured quantity: Cmax (ng/mL)
# unit: ng/mL | format: bare number

Q) Read off the recorded Cmax for O=C(O)[C@@H]1C[C@H]1c1ccc(Cn2cnc(Cl)c2)c(Cl)c1 [Compound 11]
A) 5140

====

Assay: Pharmacokinetics in SD rats after single IV and PO administration, plasma
Type: in vivo
Conditions: Sprague-Dawley (SD); rat plasma; IV 1 mg/kg
Strictly below 0.9 h in half-life: Satisfied. Otherwise: Not satisfied.

Record excerpt, results attached:
Compound | Class
O=C(O)[C@@H]1C[C@H]1c1ccc(Cn2cnc(F)c2)cc1F | Not satisfied
O=C(O)[C@@H]1C[C@H]1c1ccc(Cn2cnc(Cl)c2)c(Cl)c1 | Not satisfied

Q) Threshold test, half-life < 0.9 h: O=C(O)/C=C/c1ccc(Cn2ccnc2)cc1 [Ozagrel, reference compound]
A) Satisfied

Q) Please determine if O=C(O)[C@@H]1C[C@H]1c1ccc(Cn2cnc(F)c2)c(Cl)c1 is below 0.9 h in terms of half-life.
A) Not satisfied

Q) Consider the compound O=C(O)[C@@H]1C[C@H]1c1ccc(Cn2ccnc2)cc1 . Is its half-life strictly less than 0.9 h?
A) Satisfied

====

# log10 MRT last per record follows
Assay: Pharmacokinetics in SD rats after single IV and PO administration, plasma
Format: in vivo
Details: Sprague-Dawley (SD); rat plasma; IV 1 mg/kg; read-out: MRT(0−t)
A difference of one corresponds to tenfold MRT last; all values are log10 with MRT last in h.

Molecule | log10 MRT last
O=C(O)[C@@H]1C[C@H]1c1ccc(Cn2ccnc2)c(F)c1 [Compound 15] | 0.06
O=C(O)[C@@H]1C[C@H]1c1ccc(Cn2cnc(F)c2)c(Cl)c1 [Compound 18] | 0.89
O=C(O)[C@@H]1C[C@H]1c1ccc(Cn2cnc(F)c2)cc1F [Compound 17] | 0.58
O=C(O)[C@@H]1C[C@H]1c1ccc(Cn2cnc(Cl)c2)c(Cl)c1 [Compound 11] | 1.02
O=C(O)[C@@H]1C[C@H]1c1ccc(Cn2ccnc2)cc1 [Compound 19] | -0.30

Now for a further molecule.
Q) For the molecule O=C(O)/C=C/c1ccc(Cn2ccnc2)cc1 [Ozagrel, reference compound] , give its reported log10 MRT last.
A) -0.92

====

Overview of reported Tmax across a group of molecules:
Assay: Blood-brain barrier (BBB) study in SD rats after single IV and PO administration, brain
Assay type: in vivo
Conditions: Sprague-Dawley (SD); rat brain; PO 6 mg/kg
Procedure: Effect Example 3: Pharmacokinetic and blood-brain barrier (BBB) studies of compounds after single intravenous (IV) and oral (PO) administration in SD rats […] Among them, Cmax and Tmax are measured values, the elimination rate constant k of the tail section of the C-t curve is obtained from the linear regression of LnC-t, and the value of AUC0-4 is calculated by the trapezoidal area method, and the area under the curve from 0 to ∞ time is AUC=AUC0-4+Ct/k.
Form entry: value (h) — number only.

Some entries whose results are on file:
Molecule | Tmax, h
O=C(O)/C=C/c1ccc(Cn2ccnc2)cc1 [Ozagrel, reference compound] | 0.25
O=C(O)[C@@H]1C[C@H]1c1ccc(Cn2cnc(F)c2)cc1F | 2
O=C(O)[C@@H]1C[C@H]1c1ccc(Cn2cnc(F)c2)c(Cl)c1 | 1
O=C(O)[C@@H]1C[C@H]1c1ccc(Cn2cnc(Cl)c2)c(Cl)c1 | 4
O=C(O)[C@@H]1C[C@H]1c1ccc(Cn2ccnc2)c(F)c1 | 1

Kindly review the next molecule as well.
Q) Please give the documented Tmax of O=C(O)[C@@H]1C[C@H]1c1ccc(Cn2ccnc2)cc1
A) 0.25

====

The compounds listed here are annotated with their AUC(0-t).
Test: Pharmacokinetics in SD rats after single IV and PO administration, plasma
Assay type: in vivo
Details: Sprague-Dawley (SD); rat plasma; PO 6 mg/kg

Compound | AUC(0-t)
O=C(O)[C@@H]1C[C@H]1c1ccc(Cn2ccnc2)c(F)c1 [Compound 15] | 78.4 µg·h/mL
O=C(O)[C@@H]1C[C@H]1c1ccc(Cn2ccnc2)cc1 [Compound 19] | 36.6 µg·h/mL
O=C(O)[C@@H]1C[C@H]1c1ccc(Cn2cnc(F)c2)cc1F [Compound 17] | 178 µg·h/mL

Q) Answer with the recorded AUC(0-t) of O=C(O)[C@@H]1C[C@H]1c1ccc(Cn2cnc(F)c2)c(Cl)c1 [Compound 18] only.
A) 576 µg·h/mL

Q) Please give the documented AUC(0-t) of O=C(O)/C=C/c1ccc(Cn2ccnc2)cc1 [Ozagrel, reference compound]
A) 2.68 µg·h/mL

Q) Could you please provide reported AUC(0-t) for O=C(O)[C@@H]1C[C@H]1c1ccc(Cn2cnc(Cl)c2)c(Cl)c1 [Compound 11] ? Thanks!
A) 587 µg·h/mL

====

Tested on: MCAO/R rats
Test: Therapeutic administration (i.v.) in middle cerebral artery occlusion/reperfusion (MCAO/R) rats
Type: in vivo, rat
Conditions: medium dose 6 mg/kg i.v. (Ozagrel group 6 mg/kg), once a day for 3 days; mean ± SD, n = 8
Measured quantity: Brain water content (%)
Returns: string containing the number followed by the unit.

Use these answered entries as a reference point.
Compound | Brain water content (%)
O=C(O)/C=C/c1ccc(Cn2ccnc2)cc1 [Ozagrel, reference compound] | 79.73 ± 2.02%
O=C(O)[C@@H]1C[C@H]1c1ccc(Cn2cnc(F)c2)cc1F | 81.96 ± 2.16 %
O=C(O)[C@@H]1C[C@H]1c1ccc(Cn2ccnc2)cc1 | 81.92 ± 1.66 %
O=C(O)[C@@H]1C[C@H]1c1ccc(Cn2cnc(F)c2)c(Cl)c1 | 80.95 ± 1.79%
O=C(O)[C@@H]1C[C@H]1c1ccc(Cn2cnc(Cl)c2)cc1F | 80.58 ± 1.56%

Q) Output reported Brain water content (%) of the compound O=C(O)[C@@H]1C[C@H]1c1ccc(Cn2ccnc2)c(F)c1 on MCAO/R rats.
A) 81.19 ± 1.32%

Q) Find Brain water content (%) for O=C(O)[C@@H]1C[C@H]1c1ccc(Cn2cnc(Cl)c2)c(Cl)c1 on MCAO/R rats and write it down.
A) 80.33 ± 1.65%
